Measured values drawn from the supplement of paper PMC11316812 for this set.

# System: MCF7;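 note: secreted proteins added to cultured cells, EdU pulse at the end, nuclei found by Hoechst imaging, EdU status from nuclear versus surrounding ring intensity ratio, PBS as neutral control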
# assay-notes: percentage of EdU-negative (G0-arrested) nuclei per well, 72 h; higher = more G0 arrest
# measurement-context: protein concentration 0.3125 µM; reference: sequence is the full UniProt precursor, the tested protein was the secreted form or ectodomain

macromolecule-sequence	uom	percentage of EdU-negative
MAPGSRTSLLLAFALLCLPWLQEAGAVQTVPLSRLFDHAMLQAHRAHQLAIDTYQEFEETYIPKDQKYSFLHDSQTSFCFSDSIPTPSNMEETQQKSNLELLRISLLLIESWLEPVRFLRSMFANNLVYDTSDSDDYHLLKDLEEGIQTLMGRLEDGSRRTGQILKQTYSKFDTNSHNHDALLKNYGLLYCFRKDMDKVETFLRMVQCRSVEGSCGF [P0DML2]	%	25.8
MKTLQFFFLFCCWKAICCNSCELTNITIAIEKEECRFCISINTTWCAGYCYTRDLVYKDPARPKIQKTCTFKELVYETVRVPGCAHHADSLYTYPVATQCHCGKCDSDSTDCTVRGLGPSYCSFGEMKE	%	26.6
MALSFSLLMAVLVLSYKSICSLGCDLPQTHSLGNRRALILLAQMGRISHFSCLKDRYDFGFPQEVFDGNQFQKAQAISAFHEMIQQTFNLFSTKDSSAAWDETLLDKFYIELFQQLNDLEACVTQEVGVEEIALMNEDSILAVRKYFQRITLYLMGKKYSPCAWEVVRAEIMRSFSFSTNLQKGLRRKD	%	49.2
MAKVFSFILVTTALTMGREISALEDCAQEQMRLRAQVRLLETRVKQQQVKIKQLLQENEVQFLDKGDENTVIDLGSKRQYADCSEIFNDGYKLSGFYKIKPLQSPAEFSVYCDMSDGGGWTVIQRRSDGSENFNRGWKDYENGFGNFVQKHGEYWLGNKNLHFLTTQEDYTLKIDLADFEKNSRYAQYKNFKVGDEKNFYELNIGEYSGTAGDSLAGNFHPEVQWWASHQRMKFSTWDRDHDNYEGNCAEEDQSGWWFNRCHSANLNGVYYSGPYTAKTDNGIVWYTWHGWWYSLKSVVMKIRPNDFIPNVI	%	22.8
MSSAAGFCASRPGLLFLGLLLLPLVVAFASAEAEEDGDLQCLCVKTTSQVRPRHITSLEVIKAGPHCPTAQLIATLKNGRKICLDLQAPLYKKIIKKLLES	%	26.1
MALPFVLLMALVVLNCKSICSLGCDLPQTHSLSNRRTLMIMAQMGRISPFSCLKDRHDFGFPQEEFDGNQFQKAQAISVLHEMIQQTFNLFSTKDSSATWDETLLDKFYTELYQQLNDLEACMMQEVGVEDTPLMNVDSILTVRKYFQRITLYLTEKKYSPCAWEVVRAEIMRSFSLSANLQERLRRKE	%	48.3
MDRAARCSGASSLPLLLALALGLVILHCVVADGNSTRSPETNGLLCGDPEENCAATTTQSKRKGHFSRCPKQYKHYCIKGRCRFVVAEQTPSCVCDEGYIGARCERVDLFYLRGDRGQILVICLIAVMVVFIILVIGVCTCCHPLRKRRKRKKKEEEMETLGKDITPINEDIEETNIA	%	23.3
MLSCRLQCALAALSIVLALGCVTGAPSDPRLRQFLQKSLAAAAGKQELAKYFLAELLSEPNQTENDALEPEDLSQAAEQDEMRLELQRSANSNPAMAPRERKAGCKNFFWKTFTSC	%	27
